In this section we review reported activity at 0.01 µM values for a set of compounds.
# Tested on: iCell cardiomyocytes (human iPSC-derived cardiomyocytes)
# assay name: High-content imaging of cytotoxicity and mitochondrial integrity in iPSC-CMs
# Type: cell-based
# recorded conditions: Homo sapiens, Cardiomyocyte, 1.5 h, 0.01 µM; 90min; 0.00 µM = 100.00; read-out: cm.mii.90min
# output: bare number, implied unit %

Problem: GET /values?readout=activity at 0.01 µM&item= Clc1ccc(-c2cc(Cl)c(Cl)c(Cl)c2)cc1Cl [PCB126]
Solution: 97.6

Problem: Field request: activity at 0.01 µM | item: Clc1ccc(Cl)c(-c2c(Cl)ccc(Cl)c2Cl)c1Cl [(+)-PCB 136, 2,2′,3,3′,6,6′-hexachlorobiphenyl]
Solution: 115

Problem: GET /values?readout=activity at 0.01 µM&item= Oc1cc(Cl)c(-c2cc(Cl)ccc2Cl)cc1Cl [4-OH PCB52]
Solution: 103

Problem: May I ask what activity at 0.01 µM has been recorded for Clc1cc(Cl)c(-c2cc(Cl)c(Cl)cc2Cl)cc1Cl [PCB153] ?
Solution: 112
